- TARGET: tyrosinase (mushroom) (Agaricus bisporus)
- Sequence (C7FF04 2-392): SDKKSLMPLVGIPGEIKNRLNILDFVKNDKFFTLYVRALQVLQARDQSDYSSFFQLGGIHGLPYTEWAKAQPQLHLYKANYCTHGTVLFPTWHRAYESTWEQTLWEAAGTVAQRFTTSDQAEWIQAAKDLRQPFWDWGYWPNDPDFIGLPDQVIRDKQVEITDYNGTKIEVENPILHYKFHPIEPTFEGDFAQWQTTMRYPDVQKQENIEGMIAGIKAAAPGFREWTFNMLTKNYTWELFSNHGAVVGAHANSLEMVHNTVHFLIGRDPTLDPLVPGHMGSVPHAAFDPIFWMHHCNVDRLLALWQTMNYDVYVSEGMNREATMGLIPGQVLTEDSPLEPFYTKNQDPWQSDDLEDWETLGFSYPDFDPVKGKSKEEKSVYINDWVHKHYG
METRIC: pIC50
Just the number, please; pIC50 means minus log10 of the concentration in mol/L.

Q) # input compound: O=c1c(O)c(-c2ccc(O)c(O)c2)oc2cc(O)c(O)c(O)c12 [quercetagetin, 3,3′,4′,5,6,7-hexahydroxyflavone] ; wanted: its pIC50
A) 3.72
